# assay comment: thallium flux activation in parental CHO cells, counter-screen for KCNQ1 potentiator project (AID 493006);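 on activation: fluorescence ratio of max minus min over baseline after K+ and Tl+ depolarization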
# condition notes: parental CHO-K1 cells, FluxOR thallium flux, at 10 µM
Calls of active or inactive are those of the source.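 How the source made its calls: active means duplicate-averaged activation above buffer control mean plus 5 SD of those controls; inactive means the rest.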
Pick one: y (active), n (inactive)

Query: recorded result category for CC/C(=C\C=C\[C@@H]1C=C[C@@H]2CCC[C@H]2[C@@H]1C(=O)c1ccc[nH]1)[C@@H]1O[C@@H]([C@@H](C)C(=O)O)CC[C@@H]1C in this test y

Now the same for C=C(C)[C@@]12OC3(c4ccccc4)O[C@@H]1C1[C@@H]4O[C@]4(CO)[C@@H](O)[C@]4(O)C(=O)C(C)=C[C@H]4[C@@]1(O3)[C@H](C)[C@H]2OC(=O)/C=C/C=C/c1ccccc1 (stereo not given in full) n

Similarly, Brc1ccc2c(c1)C(OC1CN3CCC1CC3)c1ccccc1CS2 (stereo not given) ? n

Repeat for the following compound: N#Cc1c(N2CCNCC2)nc(-c2ccco2)c2c1CCCC2 n

What would you report for COc1cccc(CC(=O)N2CCN(Cc3cccc(Cl)c3)CC2)c1 ? n

---

# Test system: TRPC4 beta (transient receptor potential cation channel C4), mouse
# assay comment: positive allosteric modulators of mouse TRPC4, confirmation, cell-based, Fluo-4, HEK293 TRPC4beta/mu-opioid (AID 2555)
# condition notes: DAMGO EC20, Fluo-4 calcium flux, at 10 µM
Activity calls are given as the source filed them.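 Rule for the calls: active = primary screen hit whose calcium fluorescence ratio, in both repeats, exceeds the weak agonist control mean by 3 SD; inactive = the rest.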
Mark one answer only. Choices: active, inactive

Can you look up the reported call for Clc1ccc2c(c1)C(c1ccccc1Cl)=NCc1nnc(N3CCN(CCOc4ccccc4)CC3)n1-2 for me? active

Then what about the compound O=[N+]([O-])c1ccc(N2CCCNCC2)c2ncccc12 ? inactive

Now the same for Cc1ccc(-c2cc(-c3ccccc3)cc(-c3ccccc3)[n+]2-c2ccccc2)cc1 active

Queued: Cc1ccc(Cl)cc1N1CCN(CCN)CC1 inactive

Try the compound Nc1c([N+](=O)[O-])cc(F)c(N2CCNCC2)c1Br inactive

Try CN(CCOc1ccc(C=C2C(=O)NC(=O)NC2=O)cc1)c1ccccn1 next. inactive

Cool, now CN(C)C(CNC(=O)Cc1c(Cl)cccc1Cl)c1ccccc1 (stereo not given) inactive

Likewise for CCc1nccc2c1[nH]c1ccccc12 ? inactive

What do you get for COc1cc2c3cc1Oc1cc(ccc1O)C[C@@H]1c4c(cc(OC)c(O)c4Oc4ccc(cc4)C[C@H]3N(C)CC2)CCN1C ? inactive

Another compound to check: COC(=O)C(O)(c1ccc(NC(=S)NC(=O)c2ccc(Cl)cc2Cl)c(C)c1)C(F)(F)F (stereo not given) active

And then CCNCCNc1ccc([N+](=O)[O-])c2cccnc12 , what is it? inactive

Check CN(C)C(CNC(=O)Cc1ccc(Br)cc1)c1ccccc1 (stereo not given) too. inactive

Would you mind doing CCOC(=O)C1(CCc2ccccc2)CCN(Cc2csc(C(C)=O)c2)CC1 as well? inactive

# repeat for Clc1ccc(N2CCNCC2)nn1 inactive

Param item: COc1ccc(OC)c(CN2CCCC(C(=O)c3sccc3C)C2)c1 (stereo not given) inactive

Consider next the compound CC(Cc1ccccc1Sc1ccccc1O)N(C)C (stereo not given) in the same way. inactive

Same question, Cc1ccsc1C(=O)C1CCCN(Cc2ccccc2O)C1 (stereo not given) this time inactive

Same read-out for CCOC(=O)C1(c2ccccc2)CCN(CCC(=O)Nc2ccccc2OC)CC1 ? inactive

Queued: O=C(CCCN1CCC2(CC1)C(=O)NCN2c1ccccc1)c1ccc(F)cc1 inactive

Also CCC1(C)CC(CCNCc2ccc(N(C)C)cc2)(c2ccc(F)cc2)CCO1 (stereo not given) , if possible. inactive

Please answer likewise for CCC(=O)OC1(c2cccc(C)c2)CC(C)N(C)CC1C (stereo not given) inactive

Same read-out for Nc1cc(N2CCNCC2)ccc1[N+](=O)[O-] ? inactive

Input COc1ccc2c(c1O)[C@]13CCN(C)[C@H](C2)[C@@H]1CCC(=O)C3 inactive

Input CN(C)C=C1C(=O)N(C2CCCCC2)C(=O)N(C2CCCCC2)C1=O inactive

Could you do the same for COc1ccc(C2NCCc3[nH]cnc32)cc1 (stereo not given) , please? inactive

# repeat for COc1ccc(C)cc1NC1=NC(C)(C)CS1 inactive

Further, for CC1CN(c2ccc([N+](=O)[O-])c3cccnc23)CC(C)N1 (stereo not given) ? inactive

Queued: COc1ccc(OC)c(N2Cc3ccccc3C2=N)c1 inactive

Now the compound O=C1OC(c2ccc([N+](=O)[O-])cc2)=N/C1=C/N1CC2CC(C1)c1cccc(=O)n1C2 (stereo not given) inactive

Now try Clc1ccc(OCC#CCN2CCCC2)cc1 . inactive

---

# Test system: TRPC4 beta (transient receptor potential cation channel C4), mouse
# assay comment: positive allosteric modulators of mouse TRPC4, confirmation, cell-based, Fluo-4, HEK293 TRPC4beta/mu-opioid (AID 2555)
# condition notes: DAMGO EC20, Fluo-4 calcium flux, at 10 µM
Active and inactive are the calls of the source.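 Rule for the calls: active = primary screen hit whose calcium fluorescence ratio, in both repeats, exceeds the weak agonist control mean by 3 SD; inactive = the rest.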
API: response.call in active, inactive

Any idea what this test logged for CCN1CCN(Cc2cc(Br)ccc2O)CC1 ? active

Also CCN(CC)P(=O)(/C=C(\Cl)c1ccccc1)/C=C(\Cl)c1ccccc1 ? inactive

How about O=[N+]([O-])c1ccc(N2CCNCC2)c2ncccc12 ? active

Proceed to Nc1ccccc1-[n+]1c(-c2ccccc2)cc(-c2ccccc2)cc1-c1ccccc1 inactive

Also check COc1ccc(CNCCc2c[nH]c3ccccc23)c(OC)c1C inactive

Now consider CN1CCN(Cc2cc(=O)n3ccsc3n2)CC1 and answer again. inactive

Further, for CCOC(=O)C(O)(c1ccc(NC(=S)NC(=O)c2ccc(Cl)cc2Cl)c(C)c1)C(F)(F)F (stereo not given) ? active

Entry N=c1n(CCO)c2ccccc2n1Cc1ccccc1 please inactive

CC(Cc1ccccc1Sc1ccccc1)N(C)C (stereo not given) , same question. inactive

Proceed to COc1ccc(C(=O)C2CN(C)CC2c2ccc(Cl)cc2)cc1 (stereo not given) inactive

// same read-out, input: COc1ccc(C(CNC(=O)Cc2ccc(Cl)c(Cl)c2)N(C)C)cc1 (stereo not given) inactive

Entry to check: COc1cccc(O)c1CN1CCCC(C(=O)c2sccc2C)C1 (stereo not given) inactive

Ok, now CCOC(=O)C1(CCc2ccccc2)CCN(Cc2ccco2)CC1 inactive

Can you handle CN(C)C1(CNC(=O)Nc2ccc(Cl)c(Cl)c2)CCCCC1 next? inactive

Also, CCC(=O)C(CCN1CCOCC1)(c1ccccc1)c1ccccc1 please. inactive

Now this one: CC(Cc1ccccc1)NCC(=O)Nc1cc(N(C)C)nc2ccccc12 (stereo not given) inactive

Another compound to look at: CN(C)CCn1cnc2ccccc21 inactive

Try this compound next: COc1ccc2[nH]cc(CCN(C)C)c2c1 inactive

Input O=C(c1cccc(C(F)(F)F)c1)C1CCCN(Cc2ccccc2O)C1 (stereo not given) inactive

Another: COc1ccc(CCNCc2ccc(SC)cc2)cc1 inactive

Note, next up: c1ccc2nc(OCCN3CC3)ccc2c1 active

Item: COc1ccc(CNCCc2c[nH]c3ccccc23)cc1OC inactive

// repeat for CC1(C)CC(CCNCc2ccc3c(c2)OCO3)(Cc2ccccc2)CCO1 (stereo not given) and report inactive

And the next one, CCOC(=O)C1(CCc2ccccc2)CCN(Cc2ccc(NC(C)=O)cc2)CC1 ? inactive

COC(=O)C1=CCCN(C)C1 ? inactive

---

# assay comment: thallium flux activation in parental CHO cells, counter-screen for KCNQ1 potentiator project (AID 493006);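 on activation: fluorescence ratio of max minus min over baseline after K+ and Tl+ depolarization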
# condition notes: parental CHO-K1 cells, FluxOR thallium flux, at 10 µM
Active and inactive are the calls of the source.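 How the source made its calls: active means duplicate-averaged activation above buffer control mean plus 5 SD of those controls; inactive means the rest.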
Assign a class; possible classes are T for active, F for inactive

Dear all, I need the recorded test outcome for CC(=O)OC(C)(C)/C=C/C(=O)C(C)(O)C1[C@H](O)C[C@@]2(C)C3CC=C4C(CC[C@@H](O)C4(C)C)[C@]3(CO)C(=O)C[C@]12C (stereo not given in full) , thank you. F

Another compound to look at: CCOP(=S)(OCC)c1ccc(N(C)C)cc1 F

Query Cc1ccccc1-n1c(O)c(/C=N/N2CCOCC2)c(=O)[nH]c1=S next F

Next entry: Cc1ccc(/C=C2/C(=O)NC(=O)N(CCc3ccc(F)cc3)C2=O)o1 F

Next entry: CNC(=O)NC(O)C(Cl)(Cl)Cl (stereo not given) F

Same question, Cc1ccc(C[n+]2c(-c3ccc(C)cc3)cc(-c3ccc(C)cc3)cc2-c2ccc(C)cc2)cc1 this time T

Next entry: CC1(C)C[C@H]2C=C(C=O)[C@]3(C=O)C[C@]3(C)[C@H]2C1 F

Proceed to CN1CC(C(=O)c2ccccc2)C(c2ccccc2)C1 (stereo not given) F

Let us now turn to O=C(O)c1cccc2c1NC(c1cccc([N+](=O)[O-])c1)C1CC(Sc3ccccc3[N+](=O)[O-])C(Cl)C21 (stereo not given) F

Now give it for CC(=NCc1ccc(F)cc1)c1c(O)n(C)c(=O)n(C)c1=O too. T

These data points were gathered from PubChem BioAssay.
